tested-on: Histone deacetylase 2 (Homo sapiens)
Sequence (Q92769 whole entry): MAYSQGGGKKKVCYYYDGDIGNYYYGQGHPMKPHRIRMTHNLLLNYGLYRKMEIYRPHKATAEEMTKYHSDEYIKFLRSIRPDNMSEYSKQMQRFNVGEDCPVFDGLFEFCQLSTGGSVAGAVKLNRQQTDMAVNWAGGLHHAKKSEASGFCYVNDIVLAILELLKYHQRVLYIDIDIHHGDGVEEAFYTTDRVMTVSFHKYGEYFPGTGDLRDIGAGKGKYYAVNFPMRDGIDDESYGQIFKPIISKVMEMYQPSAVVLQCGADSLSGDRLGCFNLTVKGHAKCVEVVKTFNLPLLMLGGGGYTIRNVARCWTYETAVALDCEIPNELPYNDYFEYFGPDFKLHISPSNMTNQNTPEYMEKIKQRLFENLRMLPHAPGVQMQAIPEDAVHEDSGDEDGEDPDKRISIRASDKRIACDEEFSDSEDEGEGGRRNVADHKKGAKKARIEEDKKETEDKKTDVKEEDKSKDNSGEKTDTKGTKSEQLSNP
experimental-details: Inhibition of recombinant full-length HDAC2 (unknown origin) using MAZ1600/MAZ1675 as substrate assessed as release of 7 amino-4-methylcoumarin measured every 5 mins by fluorescence assay
We label by threshold. Values of IC50 strictly beneath 400 nM are 1.0. Values of 400 nM and up are 0.0.

Use the examples below as a reference point.
CC(C)[C@@H]1NC(=O)[C@]2(C)CSC(=N2)c2cccc(n2)CNC(=O)C[C@@H](/C=C/CCS)NC1=O; 1.0
CCCCCCCC(=O)SCC/C=C/[C@@H]1CC(=O)NCc2cc(ccn2)C2=N[C@@](C)(CS2)C(=O)N[C@@H](C(C)C)C(=O)N1; 0.0
CCCCCCCC(=O)SCC/C=C/[C@@H]1CC(=O)NCc2cc(ccn2)C2=N[C@@](C)(CS2)C(=O)N[C@@H](C(C)C)C(=O)O1; 0.0

For this compound, is IC50 lower than 400 nM? `CC(C)[C@@H]1NC(=O)[C@]2(C)CSC(=N2)c2ccnc(c2)CNC(=O)C[C@@H](/C=C/CCS)NC1=O`
1.0

For this compound, is IC50 lower than 400 nM? `CC(C)[C@@H]1NC(=O)[C@]2(C)CSC(=N2)c2ccnc(c2)CNC(=O)C[C@@H](/C=C/CCS)OC1=O`
1.0

For this compound, is IC50 lower than 400 nM? `CCCCCCCC(=O)SCC/C=C/[C@@H]1CC(=O)NCc2cccc(n2)C2=N[C@@](C)(CS2)C(=O)N[C@@H](C(C)C)C(=O)O1`
1.0

For this compound, is IC50 lower than 400 nM? `CCCCCCCC(=O)SCC/C=C/[C@@H]1CC(=O)NCc2cccc(n2)C2=N[C@@](C)(CS2)C(=O)N[C@@H](C(C)C)C(=O)N1`
0.0

---

tested-on: Protein deacetylase HDAC6 (Homo sapiens)
Sequence (Q9UBN7 whole entry): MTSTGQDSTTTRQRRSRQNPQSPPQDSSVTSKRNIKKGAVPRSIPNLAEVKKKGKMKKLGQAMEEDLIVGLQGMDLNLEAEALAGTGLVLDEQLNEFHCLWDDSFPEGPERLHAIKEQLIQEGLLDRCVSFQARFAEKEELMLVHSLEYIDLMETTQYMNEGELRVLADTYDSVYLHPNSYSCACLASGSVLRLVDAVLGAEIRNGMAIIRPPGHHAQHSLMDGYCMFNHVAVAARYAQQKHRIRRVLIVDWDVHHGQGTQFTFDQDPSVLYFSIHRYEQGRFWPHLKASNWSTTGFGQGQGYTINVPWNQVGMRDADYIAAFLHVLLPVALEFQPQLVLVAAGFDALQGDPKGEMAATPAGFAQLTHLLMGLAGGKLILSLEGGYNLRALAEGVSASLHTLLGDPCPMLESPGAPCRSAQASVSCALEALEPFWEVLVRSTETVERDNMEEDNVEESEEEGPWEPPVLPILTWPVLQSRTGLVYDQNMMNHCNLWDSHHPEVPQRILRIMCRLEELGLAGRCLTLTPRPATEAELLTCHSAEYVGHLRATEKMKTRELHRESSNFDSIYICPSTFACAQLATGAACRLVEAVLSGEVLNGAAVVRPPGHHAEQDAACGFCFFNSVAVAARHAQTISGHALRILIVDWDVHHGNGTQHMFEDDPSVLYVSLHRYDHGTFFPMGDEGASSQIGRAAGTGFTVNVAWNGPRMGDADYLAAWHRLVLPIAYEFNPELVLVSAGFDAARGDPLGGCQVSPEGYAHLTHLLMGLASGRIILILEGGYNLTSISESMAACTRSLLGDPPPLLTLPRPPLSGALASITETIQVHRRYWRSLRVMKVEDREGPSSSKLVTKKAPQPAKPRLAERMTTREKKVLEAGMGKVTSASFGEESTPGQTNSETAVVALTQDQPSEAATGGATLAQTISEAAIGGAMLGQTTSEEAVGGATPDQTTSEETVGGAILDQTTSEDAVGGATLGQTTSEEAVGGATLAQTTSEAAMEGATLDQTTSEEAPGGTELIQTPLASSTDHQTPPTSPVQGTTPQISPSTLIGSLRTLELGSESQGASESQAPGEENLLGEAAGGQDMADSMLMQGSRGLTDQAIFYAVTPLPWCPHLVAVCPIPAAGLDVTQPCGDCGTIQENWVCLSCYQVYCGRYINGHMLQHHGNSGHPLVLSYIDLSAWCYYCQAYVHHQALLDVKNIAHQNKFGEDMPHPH
experimental-details: Inhibition of recombinant full-length HDAC6 (unknown origin) using MAZ1600/MAZ1675 as substrate assessed as release of 7 amino-4-methylcoumarin measured every 5 mins by fluorescence assay
quantity-kind: pIC50
Convention used: pIC50 is expressed as -log10 of the molar concentration.

Example entries and their recorded answers appear below.
CC(C)[C@@H]1NC(=O)[C@]2(C)CSC(=N2)c2cccc(n2)CNC(=O)C[C@@H](/C=C/CCS)OC1=O; 7.31
CC(C)[C@@H]1NC(=O)[C@]2(C)CSC(=N2)c2ccnc(c2)CNC(=O)C[C@@H](/C=C/CCS)NC1=O; 5.55

Give pIC50; test system Protein deacetylase HDAC6 (Homo sapiens); compound `CC(C)[C@@H]1NC(=O)[C@]2(C)CSC(=N2)c2ccnc(c2)CNC(=O)C[C@@H](/C=C/CCS)OC1=O`
7.45

---

tested-on: Histone deacetylase 1 (Homo sapiens, UniProt Q13547)
Sequence (Q13547 whole entry): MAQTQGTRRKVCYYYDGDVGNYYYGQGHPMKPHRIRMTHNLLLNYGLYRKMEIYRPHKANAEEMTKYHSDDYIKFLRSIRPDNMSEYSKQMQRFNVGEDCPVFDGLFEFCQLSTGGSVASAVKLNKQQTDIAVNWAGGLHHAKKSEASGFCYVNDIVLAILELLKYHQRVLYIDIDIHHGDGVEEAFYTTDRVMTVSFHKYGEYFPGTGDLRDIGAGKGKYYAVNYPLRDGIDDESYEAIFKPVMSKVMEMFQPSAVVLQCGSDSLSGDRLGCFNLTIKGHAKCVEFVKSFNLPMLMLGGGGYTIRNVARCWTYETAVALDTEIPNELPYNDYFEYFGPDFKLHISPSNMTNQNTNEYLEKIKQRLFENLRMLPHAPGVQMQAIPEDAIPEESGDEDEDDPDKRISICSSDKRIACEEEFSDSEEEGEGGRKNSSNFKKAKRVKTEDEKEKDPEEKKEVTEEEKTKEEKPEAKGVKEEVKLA
experimental-details: Inhibition of recombinant full-length HDAC1 (unknown origin) using MAZ1600/MAZ1675 as substrate assessed as release of 7 amino-4-methylcoumarin measured every 5 mins by fluorescence assay
Each item that follows carries a reported pIC50.
Convention used: pIC50 is expressed as -log10 of the molar concentration.

Output pIC50 of `CC(C)[C@@H]1NC(=O)[C@]2(C)CSC(=N2)c2cccc(n2)CNC(=O)C[C@@H](/C=C/CCS)NC1=O`
7.38

---

Each item that follows carries a reported IC50.
tested-on: Histone deacetylase 8 (Homo sapiens)
Sequence (Q9BY41 whole entry): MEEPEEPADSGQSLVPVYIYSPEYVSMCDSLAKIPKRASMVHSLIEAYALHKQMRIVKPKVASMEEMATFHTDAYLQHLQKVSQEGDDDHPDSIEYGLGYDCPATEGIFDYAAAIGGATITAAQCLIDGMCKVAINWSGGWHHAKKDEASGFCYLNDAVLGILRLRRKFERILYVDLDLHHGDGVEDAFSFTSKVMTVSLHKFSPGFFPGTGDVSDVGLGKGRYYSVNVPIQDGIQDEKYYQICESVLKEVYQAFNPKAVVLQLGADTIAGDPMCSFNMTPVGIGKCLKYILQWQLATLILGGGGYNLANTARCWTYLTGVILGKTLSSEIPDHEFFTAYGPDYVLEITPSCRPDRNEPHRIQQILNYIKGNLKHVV
experimental-details: Inhibition of recombinant full-length HDAC8 (unknown origin) using MAZ1600/MAZ1675 as substrate assessed as release of 7 amino-4-methylcoumarin measured every 5 mins by fluorescence assay
The figure you give is taken to be in nM; do not add the unit.

Example entries and their recorded answers appear below.
CC(C)[C@@H]1NC(=O)[C@]2(C)CSC(=N2)c2ccnc(c2)CNC(=O)C[C@@H](/C=C/CCS)NC1=O; 1490
CC(C)[C@@H]1NC(=O)[C@]2(C)CSC(=N2)c2cccc(n2)CNC(=O)C[C@@H](/C=C/CCS)OC1=O; 341
CC(C)[C@@H]1NC(=O)[C@]2(C)CSC(=N2)c2csc(n2)CNC(=O)C[C@@H](/C=C/CCS)NC1=O; 255

Output IC50 of `CC(C)[C@@H]1NC(=O)[C@]2(C)CSC(=N2)c2ccnc(c2)CNC(=O)C[C@@H](/C=C/CCS)OC1=O`
102

---

tested-on: Histone deacetylase 3 (Homo sapiens)
Sequence (O15379 whole entry): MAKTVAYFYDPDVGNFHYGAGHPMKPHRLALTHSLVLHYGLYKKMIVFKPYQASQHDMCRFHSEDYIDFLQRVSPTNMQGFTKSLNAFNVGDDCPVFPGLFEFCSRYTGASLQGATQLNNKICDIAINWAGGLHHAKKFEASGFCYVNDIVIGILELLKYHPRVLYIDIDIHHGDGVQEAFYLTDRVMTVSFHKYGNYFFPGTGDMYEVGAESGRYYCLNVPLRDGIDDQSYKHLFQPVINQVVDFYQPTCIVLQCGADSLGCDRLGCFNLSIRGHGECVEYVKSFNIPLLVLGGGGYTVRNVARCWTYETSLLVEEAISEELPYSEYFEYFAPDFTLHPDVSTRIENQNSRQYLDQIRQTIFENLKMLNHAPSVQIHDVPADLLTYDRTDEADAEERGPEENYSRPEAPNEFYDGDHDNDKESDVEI
experimental-details: Inhibition of recombinant full-length HDAC3 (unknown origin) using MAZ1600/MAZ1675 as substrate assessed as release of 7 amino-4-methylcoumarin measured every 5 mins by fluorescence assay
quantity-kind: IC50 (nM)
The figure you give is taken to be in nM; do not add the unit.

Example entries and their recorded answers appear below.
CCCCCCCC(=O)SCC/C=C/[C@@H]1CC(=O)NCc2cccc(n2)C2=N[C@@](C)(CS2)C(=O)N[C@@H](C(C)C)C(=O)N1; 332
CCCCCCCC(=O)SCC/C=C/[C@@H]1CC(=O)NCc2cccc(n2)C2=N[C@@](C)(CS2)C(=O)N[C@@H](C(C)C)C(=O)O1; 332
CCCCCCCC(=O)SCC/C=C/[C@@H]1CC(=O)NCc2cc(ccn2)C2=N[C@@](C)(CS2)C(=O)N[C@@H](C(C)C)C(=O)N1; 846

Output IC50 of `CC(C)[C@@H]1NC(=O)[C@]2(C)CSC(=N2)c2cccc(n2)CNC(=O)C[C@@H](/C=C/CCS)NC1=O`
42.5

Output IC50 of `CC(C)[C@@H]1NC(=O)[C@]2(C)CSC(=N2)c2ccnc(c2)CNC(=O)C[C@@H](/C=C/CCS)NC1=O`
14.6

Output IC50 of `CCCCCCCC(=O)SCC/C=C/[C@@H]1CC(=O)NCc2cc(ccn2)C2=N[C@@](C)(CS2)C(=O)N[C@@H](C(C)C)C(=O)O1`
320

Output IC50 of `CC(C)[C@@H]1NC(=O)[C@]2(C)CSC(=N2)c2cccc(n2)CNC(=O)C[C@@H](/C=C/CCS)OC1=O`
3.07

Output IC50 of `CC(C)[C@@H]1NC(=O)[C@]2(C)CSC(=N2)c2ccnc(c2)CNC(=O)C[C@@H](/C=C/CCS)OC1=O`
2.31

---

tested-on: Histone deacetylase 1 (Homo sapiens, UniProt Q13547)
experimental-details: Inhibition of recombinant full-length HDAC1 (unknown origin) using MAZ1600/MAZ1675 as substrate assessed as release of 7 amino-4-methylcoumarin measured every 5 mins by fluorescence assay
quantity-kind: pIC50
Convention used: pIC50 is expressed as -log10 of the molar concentration.

CCCCCCCC(=O)SCC/C=C/[C@@H]1CC(=O)NCc2cccc(n2)C2=N[C@@](C)(CS2)C(=O)N[C@@H](C(C)C)C(=O)O1; 6.69

Give pIC50; test system Histone deacetylase 1 (Homo sapiens, UniProt Q13547); compound `CC(C)[C@@H]1NC(=O)[C@]2(C)CSC(=N2)c2ccnc(c2)CNC(=O)C[C@@H](/C=C/CCS)NC1=O`
7.88

Give pIC50; test system Histone deacetylase 1 (Homo sapiens, UniProt Q13547); compound `CCCCCCCC(=O)SCC/C=C/[C@@H]1CC(=O)NCc2cc(ccn2)C2=N[C@@](C)(CS2)C(=O)N[C@@H](C(C)C)C(=O)O1`
6.47

Give pIC50; test system Histone deacetylase 1 (Homo sapiens, UniProt Q13547); compound `CCCCCCCC(=O)SCC/C=C/[C@@H]1CC(=O)NCc2cc(ccn2)C2=N[C@@](C)(CS2)C(=O)N[C@@H](C(C)C)C(=O)N1`
6.09

Give pIC50; test system Histone deacetylase 1 (Homo sapiens, UniProt Q13547); compound `CCCCCCCC(=O)SCC/C=C/[C@@H]1CC(=O)NCc2cccc(n2)C2=N[C@@](C)(CS2)C(=O)N[C@@H](C(C)C)C(=O)N1`
6.47

Give pIC50; test system Histone deacetylase 1 (Homo sapiens, UniProt Q13547); compound `CC(C)[C@@H]1NC(=O)[C@]2(C)CSC(=N2)c2ccnc(c2)CNC(=O)C[C@@H](/C=C/CCS)OC1=O`
8.66
